Reported pKd values follow for various compounds
target: KMT9 (Homo sapiens, UniProt Q9Y5N5); assay: Microscale thermophoresis (MST) KMT9 binding; settings: His-tag labelled KMT9 20 nM; Kd class; read-out: MST
Sequence (Q9Y5N5 whole entry): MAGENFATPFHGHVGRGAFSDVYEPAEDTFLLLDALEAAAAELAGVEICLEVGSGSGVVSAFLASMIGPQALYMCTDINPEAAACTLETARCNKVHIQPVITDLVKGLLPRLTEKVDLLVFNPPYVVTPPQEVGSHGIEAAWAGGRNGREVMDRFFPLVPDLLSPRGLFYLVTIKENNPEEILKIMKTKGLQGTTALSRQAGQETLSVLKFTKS
Sequence (Q9UI30 1-120 isoform Q9UI30-2 partner): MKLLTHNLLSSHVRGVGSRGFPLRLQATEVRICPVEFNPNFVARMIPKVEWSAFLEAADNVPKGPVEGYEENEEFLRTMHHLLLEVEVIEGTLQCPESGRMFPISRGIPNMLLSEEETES
pKd: −log10 of the molar value.

Provide the documented pKd with KMT9 (Homo sapiens, UniProt Q9Y5N5) as the system for `Nc1nc(Cl)nc2c1c(-c1nc(Cc3ccccc3)cs1)cn2[C@@H]1C[C@H](C2CCN(CC3CC3)CC2)[C@@H](O)[C@H]1O` ≥ 8.00

What would you report for `Nc1nc(Cl)nc2c1c(-c1ccccc1)cn2[C@@H]1C[C@H](CNCCCNCCc2ccc(F)cc2)[C@@H](O)[C@H]1O` ? ≥ 8.00

Same thing, different compound: `O[C@@H]1[C@H](O)[C@@H](C2=CCCN(CC3CC3)C2)C[C@H]1n1cc(-c2nc(Cc3ccccc3)cs2)c2cnc(Cl)nc21` 6.00 to 7.00

Can you check `CN1CCC([C@H]2C[C@@H](n3cc(-c4ccn(Cc5ccccc5)n4)c4cnc(Cl)nc43)[C@H](O)[C@@H]2O)CC1` next? 6.00 to 7.00

Then this compound: `CN1CCC([C@H]2C[C@@H](n3cc(-c4nc(Cc5ccccc5)cs4)c4cnc(Cl)nc43)[C@H](O)[C@@H]2O)CC1` 7.00 to 8.00

Here is the next compound: `CCN1CCC([C@H]2C[C@@H](n3cc(-c4nc(Cc5ccccc5)cs4)c4c(N)nc(Cl)nc43)[C@H](O)[C@@H]2O)CC1` ≥ 8.00
